Molecular target: Somatostatin receptor 2 (SSTR2) (human), P30874
Sequence (P30874 whole entry): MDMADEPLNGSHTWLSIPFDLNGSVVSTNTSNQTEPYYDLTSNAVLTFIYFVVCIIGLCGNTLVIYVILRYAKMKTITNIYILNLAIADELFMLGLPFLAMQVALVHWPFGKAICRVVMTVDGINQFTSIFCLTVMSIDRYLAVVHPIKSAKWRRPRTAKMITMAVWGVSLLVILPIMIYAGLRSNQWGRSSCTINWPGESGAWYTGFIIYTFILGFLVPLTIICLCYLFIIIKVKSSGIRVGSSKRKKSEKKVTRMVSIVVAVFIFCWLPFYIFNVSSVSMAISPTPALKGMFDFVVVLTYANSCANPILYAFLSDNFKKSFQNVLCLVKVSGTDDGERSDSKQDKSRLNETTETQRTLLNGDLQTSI
Experiment: competition with 125I-Tyr11 SST14
Settings: N-octanoyl amide on the N-terminal residue; L-mesityl alanine (Msa) at position 6; D-Trp at position 7; disulfide bridge between the two cysteines
TEST_READOUT: IC50 (nM)

1) PCKNFFWKTFTSCK [Cortistatin analogue 3] :: 2.8
